molecular target: hNav1.1 (Homo sapiens); format: cell-based

structure | IC50, nM
NC1=N[C@H](O)[C@H]2[C@H]3O[C@]4(O)O[C@@H]([C@@H](O)[C@@]2(N1)[C@@H]4O)[C@]3(O)CO | 18.4

Cited source: paper PMC11943507
